Biological target: T1, rat GIP receptor (rat) (UniProt P43219)
T1 sequence (looked up): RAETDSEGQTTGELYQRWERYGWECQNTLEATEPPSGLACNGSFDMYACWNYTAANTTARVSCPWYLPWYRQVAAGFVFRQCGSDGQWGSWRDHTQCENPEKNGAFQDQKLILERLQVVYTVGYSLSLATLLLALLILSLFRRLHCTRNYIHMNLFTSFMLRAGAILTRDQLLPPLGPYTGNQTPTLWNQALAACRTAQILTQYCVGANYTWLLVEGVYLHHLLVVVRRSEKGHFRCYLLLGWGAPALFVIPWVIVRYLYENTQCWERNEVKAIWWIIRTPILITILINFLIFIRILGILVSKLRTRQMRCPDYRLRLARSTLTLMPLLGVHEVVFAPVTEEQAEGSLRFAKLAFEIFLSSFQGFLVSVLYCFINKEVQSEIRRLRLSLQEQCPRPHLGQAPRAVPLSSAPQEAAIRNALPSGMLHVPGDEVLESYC
Test: cell-based or functional assay
Please provide measured cAMP EC50 for the entries that follow.
The reply should be a number in pM, with the unit left off.

So what's the measured cAMP EC50 for this one? IP306 (Fc fusion) YSEGTFTSDYSKLLERQAIDEFIAWLLKGGAAAGGSGSTASSGSGSATGGGGAATHTCPPC 26

Any idea what its cAMP EC50 is? The binder is IP347 (Fc fusion) YSEGTFTSDYSKLLERQAIDEFIAILLKGGGGGGGSGGGGSGGGGSGGGGSGGGGSGGGGSA 24

Quick one: cAMP EC50 for IP338 (Fc fusion) YSEGTFISDYSIAMDKIHQQDFVNWLLAQKGGGGGSGGGGSGGGGSGGGGSGGGGSGGGGSGGGGSGGGGSAN ? 5
